Origin of values: paper PMC8809517

Target: T1, GFP-9S library array, motif 4 ND N98T;D124K (synthetic construct, N98T;D124K)
T1 chain: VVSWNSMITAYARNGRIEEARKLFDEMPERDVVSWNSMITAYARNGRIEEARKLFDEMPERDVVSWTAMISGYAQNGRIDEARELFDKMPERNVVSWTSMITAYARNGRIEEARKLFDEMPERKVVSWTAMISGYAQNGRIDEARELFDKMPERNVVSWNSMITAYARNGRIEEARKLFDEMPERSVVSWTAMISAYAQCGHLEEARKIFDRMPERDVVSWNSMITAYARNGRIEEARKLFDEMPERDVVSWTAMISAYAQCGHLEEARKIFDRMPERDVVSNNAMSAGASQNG
Assay: high-throughput RNA pulldown from lysate on Ni-NTA beads; HRP: 50 mM Tris pH 8, 150 mM NaCl, 1 mM beta-mercaptoethanol, 50 ug/ml BSA, 3 ug/ml yeast RNA, 0.5% heparin; ITC and FP: Tris pH 8, 200 mM KCl, 5% glycerol; MST: 50 mM Tris pH 8, 200 mM NaCl, 1 mM DTT, BSA, heparin, 0.05% Tween 20
Conditions: tags: N-terminal His-eGFP; label: 5' IRDye 800CW
Provide the reported Kd of each item.
Answers are plain numbers, in nM.

AUUAUACGUGA (ssRNA) [IR-rpoA-U]    81.9

Consider the additional binder presented here.
Lookup: Would you mind telling me what Kd value was observed for AUUAAACGUGA (ssRNA) [IR-rpoA-A] ?
Found: 53.4
